What growth was measured for each of the following?
# Test system: HCC-2998 colon
# Protocol: NCI-60 one-dose screen, 48 h (100 = growth as untreated, 0 = no growth, -100 = all killed)
# Test settings: 10 µM unless noted
The panel holds about 83,000 compounds, 20% with a hit somewhere; the sample as a whole holds those more often. The source made the active and inactive calls. The calls were made as follows: active = growth percent below 10; inactive = the rest.

Batch: growth for all items listed.
1. COc1ccc(/C=C\c2cc(OC)c(OC)c(OC)c2)cc1NC(=O)/C=C/c1ccc(OC)c(OC)c1
2. CC[C@H](C)[C@H](NC(=O)[C@H]1CCCCN1C)C(=O)N(C)[C@H](C[C@@H](OC(C)=O)c1nc(C(=O)N[C@@H](Cc2ccccc2)C[C@H](C)C(=O)OC)cs1)C(C)C
3. CCOc1ccccc1C(=O)OCC(Cl)(Cl)Cl
4. COC(=O)[C@@H](C)C[C@H](Cc1ccccc1)NC(=O)c1csc([C@@H](C[C@H](C(C)C)N(C)C(=O)[C@H](C)NC(=O)[C@H]2CCCN2C)OC(C)=O)n1
5. CC(C)=CCC[C@H](C(=O)O)[C@@H]1CC[C@]2(C)C3=C(CC[C@@]12C)[C@@]1(C)CC[C@H](O)C(C)(C)[C@@H]1CC3
6. Brc1ccc2c(c1)c(-c1nc(-c3c[nH]c4ncccc34)cs1)cn2CCN1CCOCC1
7. O=C([O][Hg][CH2]C1COCC([CH2][Hg][O]C(=O)c2ccccc2)O1)c1ccccc1 (stereo not drawn)
8. O=C(O)C(Cl)(Cl)C(F)(F)F

Outgoing:
["-3.07% (active)", "10.8% (inactive)", "101% (inactive)", "62.8% (inactive)", "100% (inactive)", "88.7% (inactive)", "114% (inactive)", "99.9% (inactive)"]
